Kindly supply the reported Percent Effect values for the records listed here.
System: Wolbachia pipientis
Assay: Anti-Wolbachia Cell-Based Screen
Type: functional
Parameters: scale not given: in the data most compounds retested in dose-response had high values
Details: 5 µM
In all, about 48,000 compounds went through this assay and about 13,000 (27%) showed an effect of 50% or more. The list shows a part of the results.
The reply should contain only the number, in %.

Looking up COc1ccc(C(=O)N2CC[C@](C)(O)[C@H](C)C2)cc1N1CCOCC1 , I found its Percent Effect recorded as 0.3479

Looking up CC(=O)N1CCC2(CC1)CN(C(=O)c1ccc3c(c1)OCCO3)C2 , I found its Percent Effect recorded as -18.73

Looking up COc1ccc(C(=O)N2C[C@@H](C)[C@@](C)(O)C2)cc1N1CCOCC1 , I found its Percent Effect recorded as -1.788

Looking up O=C(NC1CC1)[C@H]1[C@@H]2CN(Cc3ccc(-c4ccn[nH]4)s3)C[C@@H]21 , I found its Percent Effect recorded as -3.84

Looking up Cc1cc2cc(C(=O)N3CC[C@H](O)[C@]4(CCCO4)C3)ccc2o1 , I found its Percent Effect recorded as 1.113

###

Kindly supply the reported Percent Effect values for the records listed here.
Tested on: Wolbachia pipientis
Test: Anti-Wolbachia Cell-Based Screen
Assay type: functional
Set-up: scale not given: in the data most compounds retested in dose-response had high values
Settings: 5 µM
About 13,000 (27%) of roughly 48,000 compounds showed an effect of 50% or more. The list shows a part of the results.
The reply should contain only the number, in %.

Looking up CS(=O)(=O)NCC1CCCN(C(=O)c2ccc3c(c2)CCC3)C1 (stereo unspecified) , I found its Percent Effect recorded as -4.65

Looking up CCN1CCN(c2ccc(F)cc2C(C)NCc2ccccn2)CC1 (stereo unspecified) , I found its Percent Effect recorded as 9.781

Looking up CCc1ccccc1OCCCN(C)C(=O)C1CCCN1C(N)=O (stereo unspecified) , I found its Percent Effect recorded as -6.634

Looking up CC(NCc1ccccn1)c1ccc(N2CCN(C)CC2)c(F)c1 (stereo unspecified) , I found its Percent Effect recorded as -5.411

Looking up CC[C@@]1(O)CCN(C(=O)c2ccc(CN3CCCCCC3)cc2)C[C@H]1O , I found its Percent Effect recorded as -35.93

Looking up CC[C@@]1(O)CCN(C(=O)CCNC(=O)c2ccc(F)cc2)C[C@H]1O , I found its Percent Effect recorded as -29.52

###

Test system: Wolbachia pipientis
Assay: Anti-Wolbachia Cell-Based Screen
Format: functional
Set-up: scale not given: in the data most compounds retested in dose-response had high values
Details: 5 µM
Among all 48,000 compounds or so, about 13,000 (27%) showed an effect of 50% or more. This is one part of the list.
Kindly supply the reported Percent Effect values for the records listed here.
The reply should contain only the number, in %.

Looking up Cc1nc2ccccc2n(Cc2nnnn2C2CC2)c1=O , I found its Percent Effect recorded as 11.64

Looking up CC[C@@]1(O)CCN(C(=O)c2ccc(-c3cccc(F)c3)cc2)C[C@H]1O , I found its Percent Effect recorded as -0.249

Looking up CC(C)=CCN1C[C@H]2CC[C@@H]1CN(C(=O)c1ccc3c(c1)OCO3)C2 , I found its Percent Effect recorded as 36

Looking up CC(=O)NC[C@]1(O)CCN(C(=O)c2ccc3c(c2)CCC3)C[C@H]1O , I found its Percent Effect recorded as 101.7

Looking up Cc1ccsc1CN(C)C(=O)c1ccc(N2CCOCC2)c(F)c1 , I found its Percent Effect recorded as 8.665

Looking up CC(O)c1cn(CC2CCN(C(=O)CN3CCCC3=O)CC2)nn1 (stereo not given) , I found its Percent Effect recorded as -6.496

Looking up CC(=O)NC[C@]1(O)CCN(C(=O)c2ccc(C)c(F)c2)C[C@H]1O , I found its Percent Effect recorded as 111.8

Looking up CCOC(=O)CC(NC(=O)c1cn(Cc2ccccc2F)nn1)C(C)C (stereo not given) , I found its Percent Effect recorded as 0.973

Looking up CC(NC(=O)NC1CCN(Cc2ccccc2)CC1)c1nncn1C (stereo not given) , I found its Percent Effect recorded as -0.6608

Looking up COC[C@@]12CC[C@@H](N3CCOCC3)C[C@H]1CCN(c1cnccn1)C2 , I found its Percent Effect recorded as 11.4

###

Kindly supply the reported Percent Effect values for the records listed here.
Tested on: Wolbachia pipientis
Assay: Anti-Wolbachia Cell-Based Screen
Type: functional
Set-up: scale not given: in the data most compounds retested in dose-response had high values
Details: 5 µM
Out of some 48,000 compounds screened, about 13,000 (27%) showed an effect of 50% or more. The list shows a part of the results.
The reply should contain only the number, in %.

Entry c1cc(CNc2nnc(Cc3ccsc3)o2)cs1 , tested on Wolbachia pipientis, has a reported Percent Effect of -17.73

Entry CCc1ncc(C(=O)N2CCOCC2c2c(C)n[nH]c2C)s1 (centres undefined) , tested on Wolbachia pipientis, has a reported Percent Effect of 6.424

Entry COCc1cnc2n1CCN(C(=O)C1=CCCCC1)C2C (centres undefined) , tested on Wolbachia pipientis, has a reported Percent Effect of 2.775

Entry CC1c2ncc(Cn3cncn3)n2CCN1C(=O)c1ccsc1 (centres undefined) , tested on Wolbachia pipientis, has a reported Percent Effect of 106

Entry Cn1ncc2c(=O)[nH]c(CN(Cc3cccc(F)c3)C3CC3)nc21 , tested on Wolbachia pipientis, has a reported Percent Effect of 7.175

Entry CNS(=O)(=O)CC1CCCN1c1ccc(Br)cn1 (centres undefined) , tested on Wolbachia pipientis, has a reported Percent Effect of -12.02

Entry CC1c2ncc(Cn3cncn3)n2CCN1C(=O)Cc1cccs1 (centres undefined) , tested on Wolbachia pipientis, has a reported Percent Effect of -8.694

Entry Cc1cnc(C)c(N2CCN(CCCc3[nH]nc(C)c3C)CC2)n1 , tested on Wolbachia pipientis, has a reported Percent Effect of 13.39

Entry CN1CCN(Cc2cnc3n2CCN(C(=O)c2cscn2)C3)CC1 , tested on Wolbachia pipientis, has a reported Percent Effect of 22

Entry CC(=O)NCC(=O)N1Cc2cnc(CC(C)C)nc2C1 , tested on Wolbachia pipientis, has a reported Percent Effect of 15.63

Entry CC1c2ncc(Cn3cncn3)n2CCN1C(=O)c1ccccn1 (centres undefined) , tested on Wolbachia pipientis, has a reported Percent Effect of 114.5

Entry CC(C)c1ccc(C(=O)N2CCOCC2CC(=O)c2ccco2)cn1 (centres undefined) , tested on Wolbachia pipientis, has a reported Percent Effect of 178.1

Entry CC1c2ncc(Cn3cncn3)n2CCN1C(=O)c1cscn1 (centres undefined) , tested on Wolbachia pipientis, has a reported Percent Effect of 89.1

Entry CCN(Cc1nc2c(cnn2C)c(=O)[nH]1)c1ccccc1C , tested on Wolbachia pipientis, has a reported Percent Effect of -6.85

Entry CC(C)c1ncc(C(=O)N2CCOCC2CC(=O)c2ccco2)s1 (centres undefined) , tested on Wolbachia pipientis, has a reported Percent Effect of 131.2

Entry CCC[C@H]1CN(c2nccc(NCC)n2)C[C@@H]1NS(=O)(=O)N(C)C , tested on Wolbachia pipientis, has a reported Percent Effect of 9.452

Entry COCc1cnc2n1CCN(C(=O)c1cc3cc(Cl)ccc3o1)C2C (centres undefined) , tested on Wolbachia pipientis, has a reported Percent Effect of 1.755

Entry CCCC(C)CS(=O)(=O)NCCc1csc(N2CCCC2)n1 (centres undefined) , tested on Wolbachia pipientis, has a reported Percent Effect of 5.842

Entry CC(C)CN1CCN(Cc2nc3ccccc3[nH]2)[C@H]2CS(=O)(=O)C[C@H]21 , tested on Wolbachia pipientis, has a reported Percent Effect of -2.653

Entry CC(C)c1cc(C(=O)N2CCOCC2CC(=O)c2ccco2)nn1C (centres undefined) , tested on Wolbachia pipientis, has a reported Percent Effect of 128.9

Entry CC(C)c1nc(C(=O)N2CCOCC2CC(=O)c2ccco2)cs1 (centres undefined) , tested on Wolbachia pipientis, has a reported Percent Effect of 84.12

Entry CCC(=O)N1CCN(C(=O)c2ccc(COC)o2)[C@H]2CS(=O)(=O)C[C@H]21 , tested on Wolbachia pipientis, has a reported Percent Effect of 2.835

Entry CCC(CC)CN1CCC2(CCC(=O)N2OCc2ccccc2F)CC1 , tested on Wolbachia pipientis, has a reported Percent Effect of 5.285

Entry CCc1ocnc1C(=O)N1CCOCC1CC(=O)c1ccccc1 (centres undefined) , tested on Wolbachia pipientis, has a reported Percent Effect of -28.11

###

Kindly supply the reported Percent Effect values for the records listed here.
Tested on: Wolbachia pipientis
Experiment: Anti-Wolbachia Cell-Based Screen
Assay type: functional
Parameters: scale not given: in the data most compounds retested in dose-response had high values
Conditions: 5 µM
The campaign covered roughly 48,000 compounds. About 13,000 (27%) showed an effect of 50% or more. The list shows a part of the results.
The reply should contain only the number, in %.

Looking up CCN(CC(=O)NC)C(=O)c1sc(Cc2ccccc2)nc1C , I found its Percent Effect recorded as -6.036

Looking up O=C(Nc1ccccc1)NC1CCN(C2CCOC2)CC1 (stereo unspecified) , I found its Percent Effect recorded as -12.98

Looking up Cc1cc(C)c2[nH]c(=O)c(CN3CCC(O)(CN(C)C)C3)cc2c1 (stereo unspecified) , I found its Percent Effect recorded as -2.791

Looking up O=C(c1nnn(-c2ccccc2F)c1-c1ccccn1)N1CCSCC1 , I found its Percent Effect recorded as 6.252

Looking up CN(C)CCN(Cc1ccsc1)C(=O)C1=NNC(=O)CC1 , I found its Percent Effect recorded as -24.72

Looking up NC(=O)N1CCCN(C(=O)Nc2cc(-n3cccc3)ccc2F)CC1 , I found its Percent Effect recorded as -14.58

Looking up CCCNC(=O)CN1CCOC(CC)C1 (stereo unspecified) , I found its Percent Effect recorded as -15.19

Looking up Cc1nc(Cc2ccccc2)nc2sc(C(=O)O)c(C)c12 , I found its Percent Effect recorded as 95.86

Looking up Fc1cnc(N2CCn3cc(CNc4ccccn4)nc3C2)nc1.O=C(O)C(F)(F)F.O=C(O)C(F)(F)F , I found its Percent Effect recorded as -14.44

Looking up Cc1occc1C(=O)N1CCc2c(CNS(C)(=O)=O)cncc2C1.Cl , I found its Percent Effect recorded as 99.94

Looking up CN(C)C1Cc2ccccc2N(S(=O)(=O)c2ccc(C#N)cc2)C1 (stereo unspecified) , I found its Percent Effect recorded as -15.49

The origin of these recorded values is ChEMBL document CHEMBL3988442.
